Target: T1, Human CD137 ECD (human)
T1 construct: entry includes C-terminal His-tag and biotin acceptor peptide; also called human CD137 extracellular domain; 4-1BB
T1 sequence (chain, as listed by the source limits assumed): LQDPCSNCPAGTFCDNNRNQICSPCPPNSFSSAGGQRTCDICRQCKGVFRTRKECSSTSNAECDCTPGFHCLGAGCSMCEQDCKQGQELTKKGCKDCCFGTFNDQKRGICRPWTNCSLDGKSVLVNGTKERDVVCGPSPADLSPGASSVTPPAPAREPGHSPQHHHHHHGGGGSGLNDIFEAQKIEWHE
Experiment: Biacore SPR, vs parent H183/L072
parameter: fold change of affinity (fold)
Numbers only; they are read as fold.

*Q* Sample H183/L072 VL R54M (antibody, name in Kabat numbering, V domains shown, Dual-Ig) VH: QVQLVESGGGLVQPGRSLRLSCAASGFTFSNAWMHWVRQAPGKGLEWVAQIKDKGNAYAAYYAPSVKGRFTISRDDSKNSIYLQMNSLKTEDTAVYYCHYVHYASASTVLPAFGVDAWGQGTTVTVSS VL: DIVMTQSPLSLPVTPGEPASISCQASQELVHMNRNTYLHWYQQKPGQAPRLLIYKVSNMFPGVPDRFSGSGSGTDFTLKISRVEAEDVGVYYCAQGTSVPFTFGQGTKLEIK — what was its fold change of affinity?
*A* 0.5

*Q* What value of measured fold change of affinity is listed for H183/L072 VL K50D (antibody, name in Kabat numbering, V domains shown, Dual-Ig) VH: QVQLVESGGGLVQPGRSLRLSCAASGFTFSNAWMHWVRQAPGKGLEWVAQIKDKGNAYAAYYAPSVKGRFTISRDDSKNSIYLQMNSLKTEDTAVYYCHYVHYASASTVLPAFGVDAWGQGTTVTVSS VL: DIVMTQSPLSLPVTPGEPASISCQASQELVHMNRNTYLHWYQQKPGQAPRLLIYDVSNRFPGVPDRFSGSGSGTDFTLKISRVEAEDVGVYYCAQGTSVPFTFGQGTKLEIK ?
*A* 0

Source listed as patent US20210388087A1.
